# study_system: RBL domain of mouse Lat-1 (WT) (Mus musculus, UniProt Q80TR1)
# Construct: Analytical ultracentrifugation experiments on RBL (residues 30–134) and larger constructs indicated a monomer in solution; α-factor signal propeptide (secretion leader) (N, cleaved yes)
# Sequence (Q80TR1 30-134): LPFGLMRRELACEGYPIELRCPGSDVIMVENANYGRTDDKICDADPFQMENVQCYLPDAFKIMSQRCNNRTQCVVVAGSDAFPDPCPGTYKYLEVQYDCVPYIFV
# method_summary: NMR chemical shift perturbation titration of carbohydrates, wild-type RBL
# condition_info: NMR titration, 30°C, 20 mM sodium phosphate pH 7.0; error from curve fitting; NBD = no binding detected (up to 100 mM compound)
pKd: −log10 of the molar value.
outcome_measure: pKd

{"columns": ["compound", "study_system", "outcome_measure", "reported"],
 "data": [
  ["O[C@@H]1[C@@H](O)[C@@H](O)CO[C@H]1O", "RBL domain of mouse Lat-1 (WT) (Mus musculus, UniProt Q80TR1)", "pKd", 1.12],
  ["OC[C@H]1OC(O)[C@H](O)[C@@H](O)[C@H]1O (some centres unmarked)", "RBL domain of mouse Lat-1 (WT) (Mus musculus, UniProt Q80TR1)", "pKd", 1.47],
  ["C[C@@H]1O[C@@H](O[C@H]2C[C@@H](O)[C@]3(CO)[C@H]4[C@H](O)C[C@]5(C)[C@@H](C6=CC(=O)OC6)CC[C@]5(O)[C@@H]4CC[C@]3(O)C2)[C@H](O)[C@H](O)[C@H]1O", "RBL domain of mouse Lat-1 (WT) (Mus musculus, UniProt Q80TR1)", "pKd", 2.66],
  ["OC[C@H]1O[C@H](OCC2O[C@@H](O)[C@H](O)[C@@H](O)[C@@H]2O)[C@H](O)[C@@H](O)[C@H]1O (some centres unmarked)", "RBL domain of mouse Lat-1 (WT) (Mus musculus, UniProt Q80TR1)", "pKd", 1.48],
  ["C[C@H]1OC(O)[C@H](O)[C@@H](O)[C@H]1O (some centres unmarked)", "RBL domain of mouse Lat-1 (WT) (Mus musculus, UniProt Q80TR1)", "pKd", 1.21]
]}

---

# study_system: SUEL (Heliocidaris crassispina)
# Sequence (P22031 whole entry): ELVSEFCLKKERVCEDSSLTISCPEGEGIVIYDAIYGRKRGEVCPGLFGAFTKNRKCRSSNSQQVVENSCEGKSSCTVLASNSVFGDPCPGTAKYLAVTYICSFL
pKd: −log10 of the molar value.
outcome_measure: pKd

{"columns": ["compound", "reported"],
 "data": [
  ["C[C@@H]1OC(O)[C@H](O)[C@H](O)[C@H]1O (stereo partly drawn) [L-rhamnose]", "3.70 to 4.00"]
]}
